- experiment-description: Average particle diameter of preparation (Zetasizer Nano ZS)
- Assay type: physicochemical
- assay-context: preparation with f7 siRNA; compound/PEG-DMPE Na/DSPC/cholesterol; Examples 50, 51 / Comparative Example 2
recorded-endpoint: Particle diameter of Preparation obtained (nm)

>  <compound>
CCCCC/C=C\C/C=C\CCCCCCCCN(CCCCCCCC)C(=O)OCCCN(C)C

>  <value-reported>
153.4

$$$$
>  <compound>
CCCCC/C=C\C/C=C\CCCCCCCCN(CCCCCCCC/C=C\C/C=C\CCCCC)C(=O)OCCCCN(C)C

>  <value-reported>
135.0

$$$$
>  <compound>
CCCCC/C=C\C/C=C\CCCCCCCCN(CCCCCCCCCCCC)C(=O)OCCCN(C)C

>  <value-reported>
116.4

$$$$
>  <compound>
CCCCC/C=C\C/C=C\CCCCCCCCCCN(CCCCCCCCCC/C=C\C/C=C\CCCCC)C(=O)OCCC1CCCN1C (stereo not shown)

>  <value-reported>
140.0

$$$$
>  <compound>
CCCCC/C=C\C/C=C\CCCCCCCCOCCN(CCCCCCCC/C=C\C/C=C\CCCCC)C(=O)OCCCN(C)C

>  <value-reported>
133.0

$$$$
>  <compound>
CCCCC/C=C\C/C=C\CCCCCCCCNCCCCCCCC/C=C\C/C=C\CCCCC [Compound B-1, Di((9Z,12Z)-octadeca-9,12-dienyl)amine]

>  <value-reported>
160.6

$$$$
>  <compound>
CCCCC/C=C\C/C=C\CCCCCCCCN(CCCCCCCC/C=C\C/C=C\CCCCC)C(=O)OCCN(C)C

>  <value-reported>
139.2

$$$$

###

- experiment-description: Average particle diameter of preparation (Zetasizer Nano ZS)
- Assay type: physicochemical
- assay-context: preparation with f7 siRNA; liposome/siRNA complex encapsulated by lipid membrane; Examples 52, 53 / Comparative Example 3
recorded-endpoint: Particle diameter of Preparation obtained (nm)

>  <molecule>
CCCCCCCC/C=C\CCCCCCCCN(CCCCCCCC/C=C\CCCCCCCC)C(=O)OCCC1CCCN1C (stereo not drawn) [Compound A-17]

>  <value-reported>
101.4

$$$$
>  <molecule>
CCCCC/C=C\C/C=C\CCCCCCCCN(CCO)CCCCCCCC/C=C\C/C=C\CCCCC [Compound C-4]

>  <value-reported>
98.8

$$$$
>  <molecule>
CCCCC/C=C\C/C=C\CCCCCCCCOCCN(CCCCCCCC/C=C\C/C=C\CCCCC)C(=O)OCCCN1CCCCCC1 [Compound A-31]

>  <value-reported>
102.2

$$$$

Source listed as patent US10342758B2.
